# system.under.test: IKZF1 (Homo sapiens, UniProt Q13422+Q96SW2)
# Construct: expressed in transfected cells
# Sequence (Q13422 whole entry): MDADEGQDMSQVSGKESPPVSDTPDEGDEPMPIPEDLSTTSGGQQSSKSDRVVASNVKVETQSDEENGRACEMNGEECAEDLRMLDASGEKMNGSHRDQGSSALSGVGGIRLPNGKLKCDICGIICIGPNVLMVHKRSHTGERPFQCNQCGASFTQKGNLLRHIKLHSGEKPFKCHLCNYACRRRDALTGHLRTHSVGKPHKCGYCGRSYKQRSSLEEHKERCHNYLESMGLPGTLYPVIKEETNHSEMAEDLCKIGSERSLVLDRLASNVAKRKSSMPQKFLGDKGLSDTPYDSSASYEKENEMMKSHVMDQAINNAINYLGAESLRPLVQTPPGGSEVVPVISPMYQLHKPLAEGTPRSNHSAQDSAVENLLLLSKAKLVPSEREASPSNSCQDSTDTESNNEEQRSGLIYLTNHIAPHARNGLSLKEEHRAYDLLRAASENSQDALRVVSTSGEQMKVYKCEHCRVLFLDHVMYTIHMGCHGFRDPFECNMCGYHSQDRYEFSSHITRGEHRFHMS
# Sequence (Q96SW2 whole entry): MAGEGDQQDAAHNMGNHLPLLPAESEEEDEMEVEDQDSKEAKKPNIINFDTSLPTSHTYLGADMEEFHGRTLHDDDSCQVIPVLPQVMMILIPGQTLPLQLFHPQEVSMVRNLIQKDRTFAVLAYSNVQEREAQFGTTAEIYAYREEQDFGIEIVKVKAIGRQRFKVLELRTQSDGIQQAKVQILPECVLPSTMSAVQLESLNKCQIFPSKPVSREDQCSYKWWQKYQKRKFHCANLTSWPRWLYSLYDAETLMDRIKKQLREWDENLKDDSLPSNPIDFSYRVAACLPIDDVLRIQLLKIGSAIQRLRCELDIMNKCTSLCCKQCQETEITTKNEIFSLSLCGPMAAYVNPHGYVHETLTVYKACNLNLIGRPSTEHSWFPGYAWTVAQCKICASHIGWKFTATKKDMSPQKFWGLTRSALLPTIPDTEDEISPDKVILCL
# Sequence (Q16531 whole entry partner): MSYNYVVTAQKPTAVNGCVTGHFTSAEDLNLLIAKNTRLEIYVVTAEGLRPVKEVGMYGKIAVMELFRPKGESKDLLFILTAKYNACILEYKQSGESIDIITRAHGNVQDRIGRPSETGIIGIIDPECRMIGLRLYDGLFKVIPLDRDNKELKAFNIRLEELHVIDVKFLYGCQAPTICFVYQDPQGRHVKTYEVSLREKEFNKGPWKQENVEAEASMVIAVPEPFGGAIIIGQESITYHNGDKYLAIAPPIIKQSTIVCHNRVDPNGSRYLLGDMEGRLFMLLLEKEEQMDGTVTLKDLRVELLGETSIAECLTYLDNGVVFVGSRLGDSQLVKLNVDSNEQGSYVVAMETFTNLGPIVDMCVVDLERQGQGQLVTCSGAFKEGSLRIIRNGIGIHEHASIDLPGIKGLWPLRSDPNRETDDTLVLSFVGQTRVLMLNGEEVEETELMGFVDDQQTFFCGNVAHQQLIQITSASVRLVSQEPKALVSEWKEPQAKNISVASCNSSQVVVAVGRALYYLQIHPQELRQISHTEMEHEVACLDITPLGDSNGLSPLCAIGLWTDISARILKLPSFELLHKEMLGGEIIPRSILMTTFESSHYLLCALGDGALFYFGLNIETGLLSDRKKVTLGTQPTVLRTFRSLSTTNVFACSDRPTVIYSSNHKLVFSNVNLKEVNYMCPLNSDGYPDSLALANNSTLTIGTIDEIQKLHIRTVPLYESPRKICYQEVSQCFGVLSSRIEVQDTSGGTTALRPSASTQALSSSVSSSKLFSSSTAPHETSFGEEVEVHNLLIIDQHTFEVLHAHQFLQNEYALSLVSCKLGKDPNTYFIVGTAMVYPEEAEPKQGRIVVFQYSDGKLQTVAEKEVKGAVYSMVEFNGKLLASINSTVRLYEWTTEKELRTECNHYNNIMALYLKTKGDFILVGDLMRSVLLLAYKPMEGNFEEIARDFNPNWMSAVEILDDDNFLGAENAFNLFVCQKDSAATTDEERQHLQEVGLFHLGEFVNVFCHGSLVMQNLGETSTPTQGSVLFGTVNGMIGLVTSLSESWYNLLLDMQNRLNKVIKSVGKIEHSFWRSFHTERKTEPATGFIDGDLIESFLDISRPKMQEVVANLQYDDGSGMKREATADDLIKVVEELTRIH
# assay.text: HEK293 HiBiT in vitro degradation of IKZF1
# Assay type: cell-based
# condition: HEK293 HiBiT, 18-24 hr incubation, normalized to DMSO control; read-out: IKZF1 EC50
For each of the molecules below, state its DC50.
Give bare numbers, in µM.

# annotated cases, reported DC50 shown
{"molecule": "CC1(C)CC(N[C@H]2CCCC[C@@H]2Cc2ccc3c(c2)CN(C2CCC(=O)NC2=O)C3=O)CCO1 (stereo partly shown) [Example 110]", "unit.abbrev": "µM", "DC50": 0.163}
{"molecule": "CC(CC1CC1)N[C@H]1CCCC[C@@H]1Cc1ccc2c(c1)CN(C1CCC(=O)NC1=O)C2=O (single isomer, unassigned) [Example 230]", "unit.abbrev": "µM", "DC50": 0.066}

Noted for CC1CCC(N[C@H]2CCCC[C@@H]2Cc2ccc3c(c2)CN(C2CCC(=O)NC2=O)C3=O)CC1 (single isomer, unassigned) [Example 280] : its DC50 reads 0.07

----------
# system.under.test: IKZF1 (Homo sapiens, UniProt Q13422+Q96SW2)
# Construct: expressed in transfected cells
# assay.text: HEK293 HiBiT in vitro degradation of IKZF1
# Type: cell-based
# condition: HEK293 HiBiT, 18-24 hr incubation, normalized to DMSO control; read-out: IKZF1 EC50
outcome.measure: DC50 (nM)
Answers are plain numbers, in nM.

Worked cases, answers included:
{"compound": "CC1(C)CCC(N[C@H]2CCCC[C@@H]2Cc2ccc3c(c2)CN(C2CCC(=O)NC2=O)C3=O)CC1 (some centres unmarked)", "unit.abbrev": "nM", "DC50": 70}
{"compound": "O=C1CCC(N2Cc3cc(C[C@H]4CCCC[C@@H]4NC4CC5CCC(C5)C4)ccc3C2=O)C(=O)N1 (some centres unmarked)", "unit.abbrev": "nM", "DC50": 63}
{"compound": "O=C1CCC(N2Cc3cc(C[C@H]4CCCC[C@@H]4NC4CC5CC(C5)C4)ccc3C2=O)C(=O)N1 (some centres unmarked)", "unit.abbrev": "nM", "DC50": 574}
{"compound": "O=C1CCC(N2Cc3c(ccc(C[C@H]4OCCC[C@@H]4NC4CCC(OC(F)F)CC4)c3F)C2=O)C(=O)N1 (single isomer, unassigned) [Example 326]", "unit.abbrev": "nM", "DC50": 261}
{"compound": "CCC(C)N[C@H]1CCCC[C@@H]1Cc1ccc2c(c1F)CN(C1CCC(=O)NC1=O)C2=O (some centres unmarked) [Example 307]", "unit.abbrev": "nM", "DC50": 111}

Hi, could you look up DC50 for each item in my list?
1. O=C1CC[C@@H](N2Cc3c(ccc(C[C@H]4CCCC[C@@H]4NC4CCC(F)(F)CC4)c3F)C2=O)C(=O)N1 (single isomer, unassigned)
2. CC(C)(C#N)CCN[C@H]1CCCC[C@@H]1Cc1ccc2c(c1)CN(C1CCC(=O)NC1=O)C2=O (some centres unmarked)
3. O=C1CCC(N2Cc3cc(C[C@H]4CCCC[C@@H]4NC4CCc5ccccc54)ccc3C2=O)C(=O)N1 (some centres unmarked)
4. O=C1CCC(N2Cc3cc(C[C@H]4CCCC[C@@H]4NC4CCCC[C@@H]4F)ccc3C2=O)C(=O)N1 (some centres unmarked) [Example 105]
5. CCC(C)N[C@H]1CCCC[C@@H]1Cc1ccc2c(c1F)CN(C1CCC(=O)NC1=O)C2=O (single isomer, unassigned) [Example 295]
6. N#CC1CCC(N[C@H]2CCCC[C@@H]2Cc2ccc3c(c2)CN(C2CCC(=O)NC2=O)C3=O)CC1 (single isomer, unassigned) [Example 268]

1: 16; 2: 132; 3: 78; 4: 76; 5: 283; 6: 76
